- Tested on: Mycobacterium tuberculosis
- assay.overview: Inhibition of Mycobacterium tuberculosis ThyX at 100 uM preincubated with enzyme followed by [5-3H]dUMP substrate addition measured after 30 mins in presence of 5,10-methylenetetrahydrofolate,NADPH and FAD by liquid scintillation counting
quantity.name: inhibition (%)
Give the quantity in %, number only.

>  <smiles.structure>
O=c1[nH][nH]c(=O)c2nccnc12

>  <subject.of.test>
Mycobacterium tuberculosis

>  <inhibition [%]>
5.3

$$$$
>  <smiles.structure>
O=c1[nH][nH]c(=O)c2nc3ccccc3nc12

>  <subject.of.test>
Mycobacterium tuberculosis

>  <inhibition [%]>
10

$$$$
>  <smiles.structure>
Cc1nnc(Cl)c2ncn(C)c12

>  <subject.of.test>
Mycobacterium tuberculosis

>  <inhibition [%]>
14

$$$$

Query string: Which measured inhibition belongs to `C[C@@H](Sc1n[nH]c(=O)[nH]c1=O)C(=O)O` , tested on Mycobacterium tuberculosis?
Result string: 6.1

Query string: Enter reported inhibition observed with Mycobacterium tuberculosis for `O=c1[nH]c(=O)n([C@H]2C[C@H](O)[C@@H](COP(=O)(O)O)O2)cc1F`
Result string: 97.3

Query string: Request: inhibition, test system Mycobacterium tuberculosis, entry `O=c1[nH]nc(-c2ccccc2)c2nc[nH]c12`
Result string: 15

FYI, the data here is from ChEMBL document CHEMBL3860049.
